# TARGET ENTITY: Ataxin-2 (Homo sapiens)
# MEASUREMENT NOTES: qHTS for Inhibitors of ATXN expression.
# Assay type: functional
Hit rate of the full screen: of about 400,000 compounds, about 2,100 (0.53%) were called active. About 14% were inconclusive and are not listed. No rule for the calls is given here. For the sample, actives were picked, then their nearest neighbours and some compounds at random.
# valid calls are active, inactive; nothing else

As a guide, the following entries are already answered.
Cc1cccn2c(=O)c3cc(C#N)c(=O)n(Cc4cccnc4)c3nc12 = inactive
CCc1cc(=O)oc2c(CN3CCN(C)CC3)c(O)ccc12 = inactive
Cc1ccc2[nH]c3c(c2c1)CCCC3NCCO (stereo unspecified) = inactive

Assay result, entry CCCc1nc2ccc(C(=O)OC)cn2c1Cc1ccccc1C(F)(F)F — outcome? active

Can you look up the reported call for CCCc1nc2ccc(C)cn2c1Cc1ccccc1OC for me? active

// outcome(item) with item = CCn1c(=N)c(C(=O)NCc2ccccc2)cc2c(=O)n3cc(C)ccc3nc21 inactive

Could you kindly confirm the outcome this assay logged for CCCc1nc2ccc(C)cn2c1Cc1ccccc1 ? active

I would be grateful if you could indicate the recorded call for Cc1ccc2[nH]c3c(c2c1)CN(C(=O)CN1CCCCC1)CC3 . inactive

Could you please tell me the result logged for CCCc1nc2c3ccccc3ccn2c1Cc1ccccc1 in this assay? active

Recorded test outcome, item COc1ccc(NC(=O)N(C)[C@H]2C[C@H]3c4[nH]c5ccc(-c6cccc(C)c6)cc5c4CCN3C[C@H]2[C@H](C)O)cc1 active

What is the recorded call for this molecule in the test? CCCn1c(=N)c(C(=O)NCC2CCCO2)cc2c(=O)n3cccc(C)c3nc21 (stereo unspecified) inactive
